# System: DLD-1 human colon carcinoma cells
# TEST_NAME: MTS cell viability assay, DLD-1 human colon carcinoma cells
# Assay type: cell-based
# CONDITION_SET: DLD-1, 4 h compound incubation, MTS, read-out: IC50 Values, Cancerous Cells, Colon DLD-1
Assignment: determine reported pIC50 for the given compounds.
One number for each entry, as −log10 of the molar value.

Worked set:
{"COMPOUND": "O=C1C(=O)c2ccccc2C2=C1SCC1(CCN(C(=O)c3cnccc3C(=O)O)CC1)O2 [Compound 237]", "ASSAY_METRIC": "pIC50", "TEST_VALUE": 4.18}
{"COMPOUND": "N#Cc1ccc(CN2CCC3(CC2)CSC2=C(O3)c3ccccc3C(=O)C2=O)cc1 [Compound 123]", "ASSAY_METRIC": "pIC50", "TEST_VALUE": 5.36}
{"COMPOUND": "CCc1ccc(OCC(O)CN2CCC3(CC2)CSC2=C(O3)c3ccccc3C(=O)C2=O)cc1 (stereo not shown) [Compound 170]", "ASSAY_METRIC": "pIC50", "TEST_VALUE": 5.83}
{"COMPOUND": "Cc1ccc(CN2CCC3(CC2)CSC2=C(O3)c3ccccc3C(=O)C2=O)cc1F [Compound 146]", "ASSAY_METRIC": "pIC50", "TEST_VALUE": 5.34}
{"COMPOUND": "O=C1C(=O)c2ccccc2C2=C1SCC1(CCN(CC(O)COc3ccccc3)CC1)O2 (stereo not shown) [Compound 158]", "ASSAY_METRIC": "pIC50", "TEST_VALUE": 5.83}

For every record below, what is its pIC50?
1. O=C1C(=O)c2ccccc2C2=C1SCC1(CCN(C(=O)c3cccc(Cl)c3)CC1)O2 [Compound 55]
2. O=C1C(=O)c2ccccc2C2=C1SCC1(CCN(S(=O)(=O)c3c(Cl)nc4sccn34)CC1)O2 [Compound 77]
3. O=C1C(=O)c2ccccc2C2=C1SCC1(CCN(CC3CC3)CC1)O2 [Compound 122]

Result:
1: 5.68; 2: 4.69; 3: 5.78

For every record below, what is its pIC50?
1. O=C1C(=O)c2ccc(F)cc2C2=C1SCC1(CCN(C(=O)Oc3cccc(C(F)(F)F)c3)CC1)O2 [Compound 100]
2. Cc1ccc(CN2CCC3(CC2)CSC2=C(O3)c3ccccc3C(=O)C2=O)cc1 [Compound 120]

Result:
1: 5.95; 2: 5.37

----------
# Tested on: DLD-1 human colon carcinoma cells
# TEST_NAME: MTS cell viability assay, DLD-1 human colon carcinoma cells
# Assay type: cell-based
# CONDITION_SET: DLD-1, 4 h compound incubation, MTS, read-out: IC50 Values, Cancerous Cells, Colon DLD-1
Assignment: determine reported IC50 for the given molecules.

{"MOLECULE": "CCCCC(O)CN1CCC2(CC1)CSC1=C(O2)c2ccccc2C(=O)C1=O (stereo not drawn)", "MEASURED_ON": "DLD-1 human colon carcinoma cells", "IC50": "1360 nM"}
{"MOLECULE": "O=C1C(=O)c2ccccc2C2=C1SCC1(CCN(C(=O)Nc3ccc(Cl)c(Cl)c3)CC1)O2", "MEASURED_ON": "DLD-1 human colon carcinoma cells", "IC50": "3040 nM"}
{"MOLECULE": "O=C1C(=O)c2ccccc2C2=C1SCC1(CCN(Cc3ccccc3F)CC1)O2", "MEASURED_ON": "DLD-1 human colon carcinoma cells", "IC50": "2420 nM"}
{"MOLECULE": "O=C1C(=O)c2ccccc2C2=C1SCC1(CCN(C(=O)c3ccccc3I)CC1)O2", "MEASURED_ON": "DLD-1 human colon carcinoma cells", "IC50": "2870 nM"}
{"MOLECULE": "O=C1C(=O)c2ccccc2C2=C1SCC1(CCN(C3CCCC3)CC1)O2", "MEASURED_ON": "DLD-1 human colon carcinoma cells", "IC50": "1430 nM"}
{"MOLECULE": "CC(C)COC(=O)N1CCC2(CC1)CSC1=C(O2)c2ccccc2C(=O)C1=O", "MEASURED_ON": "DLD-1 human colon carcinoma cells", "IC50": "1680 nM"}

For every record below, what is its IC50?
1. O=C(O)CSCC(=O)N1CCC2(CC1)CSC1=C(O2)c2ccccc2C(=O)C1=O
2. O=C1C(=O)c2ccccc2C2=C1SCC1(CCN(C3CCCCC3)CC1)O2
3. O=C1C(=O)c2ccccc2C2=C1SCC1(CCN(C(=O)Oc3ccccn3)CC1)O2
4. Cc1cc(C(=O)N2CCC3(CC2)CSC2=C(O3)c3ccccc3C(=O)C2=O)c(C)o1
5. CC(C)CCN1CCC2(CC1)CSC1=C(O2)c2ccccc2C(=O)C1=O
6. C=CCCN1CCC2(CC1)CSC1=C(O2)c2ccccc2C(=O)C1=O

Result:
1. > 100000 nM
2. 1490 nM
3. 1540 nM
4. 1580 nM
5. 1530 nM
6. 2140 nM
